# collection of Ki values tested on Histamine H3 receptor (Rattus norvegicus)
# Sequence (Q9QYN8 whole entry): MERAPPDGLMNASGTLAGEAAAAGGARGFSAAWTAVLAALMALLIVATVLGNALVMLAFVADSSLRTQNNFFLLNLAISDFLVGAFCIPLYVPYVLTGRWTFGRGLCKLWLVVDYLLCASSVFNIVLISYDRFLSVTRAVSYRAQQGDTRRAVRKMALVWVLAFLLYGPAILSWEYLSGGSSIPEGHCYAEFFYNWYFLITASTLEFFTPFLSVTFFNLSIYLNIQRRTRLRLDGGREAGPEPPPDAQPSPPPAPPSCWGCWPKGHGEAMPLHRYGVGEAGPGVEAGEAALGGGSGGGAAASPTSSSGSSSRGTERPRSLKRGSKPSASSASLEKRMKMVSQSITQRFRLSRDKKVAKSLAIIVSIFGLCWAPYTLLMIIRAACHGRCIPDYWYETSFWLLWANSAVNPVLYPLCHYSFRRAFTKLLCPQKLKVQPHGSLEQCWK
Could you give the number and then its unit, please?

Some entries whose results are on file:
structure_smiles_string=C[C@@H](COc1ccc(-c2cn[nH]c(=O)c2)cc1)CN1CCCCC1 result_type=Ki obs_value="131 nM"
structure_smiles_string=COCn1ncc(-c2ccc(OCCCN3CCC[C@H]3C)cc2)cc1=O result_type=Ki obs_value="14 nM"

Exercise: Recorded Ki of COCn1ncc(-c2ccc(OCCCN3CCC[C@H]3C)cc2)c(OC)c1=O , please.
Solution: 13 nM

Exercise: Same thing, different molecule: COCn1ncc(OC)c(-c2ccc(OCCCN3CCC[C@H]3C)cc2)c1=O
Solution: 19 nM

====

Target: Cytochrome P450 2C19 (Homo sapiens, UniProt P33261)
Sequence (P33261 whole entry): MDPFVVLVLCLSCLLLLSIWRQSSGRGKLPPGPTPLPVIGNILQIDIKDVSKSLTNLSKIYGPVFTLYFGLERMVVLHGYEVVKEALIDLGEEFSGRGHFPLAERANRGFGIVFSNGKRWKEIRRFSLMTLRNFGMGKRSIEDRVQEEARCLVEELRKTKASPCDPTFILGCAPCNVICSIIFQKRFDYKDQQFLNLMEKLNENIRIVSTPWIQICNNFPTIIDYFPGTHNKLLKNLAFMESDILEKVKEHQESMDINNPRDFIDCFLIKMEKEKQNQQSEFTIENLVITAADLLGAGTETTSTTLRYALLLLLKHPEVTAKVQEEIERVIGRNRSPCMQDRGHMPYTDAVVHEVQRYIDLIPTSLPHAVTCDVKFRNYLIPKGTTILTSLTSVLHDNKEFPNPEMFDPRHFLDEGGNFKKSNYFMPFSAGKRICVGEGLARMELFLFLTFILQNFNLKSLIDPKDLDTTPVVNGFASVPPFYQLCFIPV
pIC50: −log10 of the molar value.
Result type: pIC50

structure_smiles_string=C[C@H](COc1ccc(-c2cn[nH]c(=O)c2)cc1)CN1CCC[C@H]1C obs_value="< 4.52"

Please find the next compound below.
Exercise: Recorded pIC50 of COCn1ncc(-c2ccc(OCCCN3CCC[C@H]3C)cc2)cc1=O , please.
Solution: < 4.52

====

Reported values of half-life for individual entries
Test: Half life in monkey liver microsomes
Format: ADME, Macaca mulatta, Microsome
Details: rhesus monkey

Exercise: Recorded half-life of C[C@H](COc1ccc(-c2cn[nH]c(=O)c2)cc1)CN1CCC[C@H]1C , please.
Solution: > 40 min

Exercise: Same thing, different compound: COCn1ncc(-c2ccc(OCCCN3CCC[C@H]3C)cc2)cc1=O
Solution: > 40 min

====

Experiment: Clearance in Sprague-Dawley rat at 1 mg/kg, iv
Assay type: ADME, organism-based
Set-up: dose 1 mg/kg, route intravenous
Conditions: in vivo
Result type: clearance (mL/min/kg)
Supply the numeric figure in mL/min/kg, leaving out any unit text.

Some entries whose results are on file:
structure_smiles_string=COCn1ncc(-c2ccc(OCCCN3CCC[C@H]3C)cc2)cc1=O unit_symbol=mL/min/kg obs_value=93
structure_smiles_string=C[C@@H]1CCCN1CCCOc1ccc(-c2cn[nH]c(=O)c2)cc1 unit_symbol=mL/min/kg obs_value=10

Exercise: Recorded clearance of C[C@H](COc1ccc(-c2cn[nH]c(=O)c2)cc1)CN1CCC[C@H]1C , please.
Solution: 21

====

# collection of Ki values tested on Histamine H3 receptor (Homo sapiens)
# Sequence (Q9Y5N1 whole entry): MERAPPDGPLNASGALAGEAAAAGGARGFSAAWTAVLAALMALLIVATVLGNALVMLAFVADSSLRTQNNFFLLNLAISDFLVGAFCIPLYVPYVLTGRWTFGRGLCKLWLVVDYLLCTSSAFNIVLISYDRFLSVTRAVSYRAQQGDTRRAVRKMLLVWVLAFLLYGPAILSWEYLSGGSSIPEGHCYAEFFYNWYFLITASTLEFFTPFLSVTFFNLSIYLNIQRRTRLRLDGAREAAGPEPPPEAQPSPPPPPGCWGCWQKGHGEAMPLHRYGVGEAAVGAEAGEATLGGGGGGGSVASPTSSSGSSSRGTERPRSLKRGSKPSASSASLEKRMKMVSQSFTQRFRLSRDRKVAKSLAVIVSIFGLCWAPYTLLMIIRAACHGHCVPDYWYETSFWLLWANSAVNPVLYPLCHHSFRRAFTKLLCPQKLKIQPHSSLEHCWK

Exercise: Recorded Ki of C[C@@H](COc1ccc(-c2cn[nH]c(=O)c2)cc1)CN1CCCCC1 , please.
Solution: 47 nM

Exercise: Same thing, different molecule: COCn1ncc(-c2ccc(OCCCN3CCC[C@H]3C)cc2)cc1=O
Solution: 4 nM

Exercise: Same thing, different molecule: COCn1ncc(-c2ccc(OCCCN3CCC[C@H]3C)cc2)c(OC)c1=O
Solution: 5 nM

Exercise: Same thing, different molecule: COCn1ncc(OC)c(-c2ccc(OCCCN3CCC[C@H]3C)cc2)c1=O
Solution: 10 nM

====

Reported values of half-life for individual entries
Assay: Half life in rat liver microsomes
Assay type: ADME, Microsome

structure_smiles_string=COCn1ncc(-c2ccc(OCCCN3CCC[C@H]3C)cc2)cc1=O obs_value="> 40 min"

Please find the next molecule below.
Exercise: Recorded half-life of C[C@H](COc1ccc(-c2cn[nH]c(=O)c2)cc1)CN1CCC[C@H]1C , please.
Solution: > 40 min

====

Assay: Half life in human liver microsomes
Type: ADME, Microsome
Result type: half-life

Exercise: Recorded half-life of C[C@H](COc1ccc(-c2cn[nH]c(=O)c2)cc1)CN1CCC[C@H]1C , please.
Solution: > 40 min

Exercise: Same thing, different molecule: COCn1ncc(-c2ccc(OCCCN3CCC[C@H]3C)cc2)cc1=O
Solution: > 40 min

====

Reported values of Cmax for individual entries
Experiment: Cmax in Sprague-Dawley rat at 5 mg/kg, po
Format: ADME, organism-based
Set-up: dose 5 mg/kg, route oral
Details: in vivo
Supply the numeric figure in ng/mL, leaving out any unit text.

Some entries whose results are on file:
structure_smiles_string=C[C@@H]1CCCN1CCCOc1ccc(-c2cn[nH]c(=O)c2)cc1 result_type=Cmax unit_symbol=ng/mL obs_value=401
structure_smiles_string=C[C@H](COc1ccc(-c2cn[nH]c(=O)c2)cc1)CN1CCC[C@H]1C result_type=Cmax unit_symbol=ng/mL obs_value=187

Exercise: Recorded Cmax of COCn1ncc(-c2ccc(OCCCN3CCC[C@H]3C)cc2)cc1=O , please.
Solution: 53
